# Test system: 786-0 renal
# Assay Overview: NCI-60 one-dose screen, 48 h (100 = growth as untreated, 0 = no growth, -100 = all killed)
# Condition Notes: 10 µM unless noted
This is part of a sample that, as a whole, favours compounds with a hit. Of some 83,000 tested, about 20% had one in any assay.
// growth lookup, one value per entry
Reported Metric: growth (%)

# Compound, Readout Value
rows = [
    ("O=[N+]([O-])c1ccccc1NCSc1ccc(Cl)cc1", 87.6),
    ("CCOC(=O)/C=C1\\S/C(=N\\Nc2ccc([N+](=O)[O-])cc2[N+](=O)[O-])N(Cc2ccccc2)C1=O", 91.2),
    ("O=C1CSC(c2c(Cl)cccc2Cl)N1c1nc(Cl)cc(=O)[nH]1 (stereo unspecified)", 90.7),
    ("O=C(Nc1c2ccccc2nc2ccccc12)c1ccccc1CN1C(=O)c2ccccc2C1=O", 38.9),
    ("C=C1C(=O)O[C@H]2[C@H]1CC/C(COC(=O)CCC(=O)NCCOCCOCC(=O)Nc1ccc(OC)c(C(N)=O)c1O)=C\\CC[C@@]1(C)O[C@@H]21", 91.8),
    ("CSc1nc2ccc(C)cc2cc1/C=N/O", 89.9),
]

====

Quick reference: growth of the listed items.
# System: NCI-H226 lung
# Assay Overview: NCI-60 one-dose screen, 48 h (100 = growth as untreated, 0 = no growth, -100 = all killed)
# Condition Notes: 10 µM unless noted
This is part of a sample that, as a whole, favours compounds with a hit. Of some 83,000 tested, about 20% had one in any assay. Calls of active or inactive are those of the source. Rule for the calls: active = growth percent below 10; inactive = the rest.

# Molecule Smiles, Target Or Test System, growth
measured = [
    ("COc1ccc(/C=N/Nc2cc(=O)[nH]c3ccc(Cl)cc23)cc1", "NCI-H226 lung", "80.4% (inactive)"),
    ("CNCCCNc1nc2ccccc2c2c(=O)c3cc(F)ccc3sc12", "NCI-H226 lung", "81.7% (inactive)"),
    ("O=C(CSc1nccc(Nc2ccc(S(=O)(=O)Nc3nccs3)cc2)n1)c1ccc(C(F)(F)F)cc1", "NCI-H226 lung", "89.2% (inactive)"),
]

====

# Tested on: CCRF-CEM leukemia
# Assay Overview: NCI-60 one-dose screen, 48 h (100 = growth as untreated, 0 = no growth, -100 = all killed)
# Condition Notes: 10 µM unless noted
About 83,000 compounds went through this panel and 20% of them were active in at least one assay; those are over-represented in the sample as a whole.

# Compound, Units Label, growth
rows = [
    ("CC(=O)N1CCN(c2ccc(OCC3CO[C@](Cn4ccnc4)(c4ccc(Cl)cc4Cl)O3)cc2)CC1 (some centres undefined)", "%", 75.2),
    ("O=C1NC(=O)C(c2ccccc2)(c2ccccc2)N1Cc1cn(-c2c3ccccc3nc3ccccc23)nn1", "%", 64.6),
    ("COc1ccc(/C=N/Nc2cc(=O)[nH]c3ccc(Cl)cc23)cc1", "%", 38.2),
    ("O=c1[nH][n+](-c2ccc(Br)cc2)no1", "%", 55.1),
    ("CN(C)CC#Cc1ccc2ncc(C#N)c(Nc3ccc(F)c(Cl)c3)c2c1", "%", 81.7),
    ("C#C[C@]1(O)CC[C@H]2[C@@H]3CC=C4c5sc(Nc6ccccc6)nc5CC[C@]4(C)[C@H]3CC[C@@]21C", "%", 6.66),
    ("CC1=NN(c2ccc(S(=O)(=O)O)cc2)C(=O)C1N=Nc1ccc(-c2ccc(N=Nc3ccc(OS(=O)(=O)c4ccc(C)cc4)cc3)c(S(=O)(=O)O)c2)cc1 (centres undefined)", "%", 67.8),
    ("NC1=C(c2nn[nH]n2)C(c2ccccc2Cl)c2ccc3ccccc3c2O1 (centres undefined)", "%", 77.5),
    ("COc1ccc(/C=C/c2c(C(=O)/C=C/c3ccc(C(F)(F)F)cc3)c(C)nc3ccccc23)cc1", "%", 7.64),
    ("Nc1ccc(Sc2ccc([N+](=O)[O-])c3nonc23)cc1", "%", 27.7),
    ("CCCCCCNC(=O)Oc1ccc(/C(=C(\\C)c2ccc(OC)cc2)c2ccc(OCCN3CCCCC3)cc2)cc1", "%", 66.5),
    ("COc1cc(C(=O)c2cc(C)c3[nH]c4ccc(O)cc4c3c2C)cc(OC)c1OC", "%", 15.5),
    ("Cc1ccc(/C=C(\\C#N)n2nc3cccc(F)c3n2)cc1", "%", 104),
    ("Cc1ccc(-c2nc(N3CCN(C(=O)c4ccc(OC(F)(F)F)cc4)CC3)c3ccccc3n2)cc1", "%", 75.3),
]
